# credit: patent US20180168208A1

Target: T1R1/T1R3 receptor (Felis catus, UniProt E3UMS2)
Experiment: cell-based
Type: cell-based
Conditions: EC50 + IMP, + IMP (0.2 mM); Table 17
Source text: HEK293 cells that stably express T1R3 and inducibly express T1R1 were exposed to transmembrane compounds alone or in combination with one or more amino acids and/or one or more nucleotides to activate the umami receptor. Activation of the T1R1/T1R3 receptor was detected by a change in intracellular calcium levels using a calcium sensitive fluorescent dye. Cells that express T1R3 but not T1R1 were used as a control. A FLIPR® Tetra or a FlexStation® 3 was used for data capture. […]
Would you mind telling me the reported EC50 of each entry?
Answers are plain numbers, in µM.

> print(dat)
                                   compound  reported.measurement
1            CCCC(CCC)C(=O)Nc1ccc2c(c1)OCO2                   270
2  CC1CCCC(NC(=O)c2ccc3c(c2)OCO3)C1C (stereo not shown)                  1100

Could you now look at the following compound, please?
// EC50 lookup, compound = `CCC(CC)NC(=O)/C=C/c1ccc(OC)cc1` , result: 150

----------
target: T1R1/T1R3 receptor (Felis catus, UniProt E3UMS2); experiment: cell-based; conditions: in the presence of 0.2 mM IMP; relative to alanine
Would you mind telling me the reported Max resp % of Ala, +IMP (0.2 mM) of each entry?
Give bare numbers, in %.

Please state Max resp % of Ala, +IMP (0.2 mM) for every compound in the list that follows.
1. N[C@@H](CO)C(=O)O
2. CCCCc1nn(CC(=O)N2CCCC2)c(=O)n1Cc1ccccc1
3. O=C1CC(=O)N(Cc2ccccc2)C(=O)N1Cc1ccccc1

1. 100.0
2. 193.2
3. 35.7

Please state Max resp % of Ala, +IMP (0.2 mM) for every compound in the list that follows.
1. N[C@@H](Cc1c[nH]cn1)C(=O)O
2. CC(C)CC(NC(=O)c1ccccc1)C(N)=O (racemic)

[36.3, 204.5]

Please state Max resp % of Ala, +IMP (0.2 mM) for every compound in the list that follows.
1. CC(=O)Nc1ccc(C(=O)Nc2cc(-c3ccccc3)nn2CCO)cc1
2. COC(=O)[C@H](Cc1ccccc1)NCc1ccccc1.Cl
3. N[C@@H](Cc1ccccc1)C(=O)O [L-Phenylalanine, reference compound]
4. N[C@@H](Cc1c[nH]c2ccccc12)C(=O)O

1: 58.8; 2: 289.4; 3: 75.9; 4: 86.8

----------
target: cat T1R1/T1R3 receptor (Felis catus, UniProt A0ABI7Z2I4); assay: cell-based
Sequence (A0ABI7Z2I4 171-420): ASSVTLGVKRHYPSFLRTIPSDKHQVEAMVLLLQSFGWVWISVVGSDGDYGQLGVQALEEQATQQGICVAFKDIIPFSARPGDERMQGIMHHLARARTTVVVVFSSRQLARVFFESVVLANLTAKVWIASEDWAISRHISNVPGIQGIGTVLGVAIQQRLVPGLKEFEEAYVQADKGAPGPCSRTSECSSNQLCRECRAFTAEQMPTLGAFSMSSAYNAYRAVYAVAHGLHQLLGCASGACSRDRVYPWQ
Sequence (Q49KI5 with tags, fused parts or gaps E206Q/N523D/F654L partner): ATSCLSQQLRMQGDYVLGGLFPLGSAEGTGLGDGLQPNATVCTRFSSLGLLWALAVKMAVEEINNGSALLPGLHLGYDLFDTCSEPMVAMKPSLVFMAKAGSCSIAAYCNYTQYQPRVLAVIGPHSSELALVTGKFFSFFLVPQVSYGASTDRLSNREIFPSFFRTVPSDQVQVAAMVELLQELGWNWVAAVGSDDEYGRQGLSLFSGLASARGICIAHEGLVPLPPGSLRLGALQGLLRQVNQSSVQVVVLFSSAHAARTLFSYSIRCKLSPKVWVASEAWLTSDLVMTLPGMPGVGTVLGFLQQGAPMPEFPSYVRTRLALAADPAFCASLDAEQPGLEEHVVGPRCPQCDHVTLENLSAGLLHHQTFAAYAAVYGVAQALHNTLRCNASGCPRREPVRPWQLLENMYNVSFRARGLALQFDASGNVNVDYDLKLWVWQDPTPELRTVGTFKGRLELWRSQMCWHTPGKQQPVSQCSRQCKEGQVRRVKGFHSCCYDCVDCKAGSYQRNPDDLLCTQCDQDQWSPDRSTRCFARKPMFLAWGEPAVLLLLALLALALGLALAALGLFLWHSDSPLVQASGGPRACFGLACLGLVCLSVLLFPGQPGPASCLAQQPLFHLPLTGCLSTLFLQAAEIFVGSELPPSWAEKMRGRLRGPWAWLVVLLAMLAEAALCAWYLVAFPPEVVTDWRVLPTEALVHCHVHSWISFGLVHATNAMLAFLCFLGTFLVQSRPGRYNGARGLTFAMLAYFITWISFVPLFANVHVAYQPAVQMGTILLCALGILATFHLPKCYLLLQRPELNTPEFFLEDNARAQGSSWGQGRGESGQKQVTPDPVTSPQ
Counter-ions that a name gives are not always drawn.
Grouping rule (Threshold): category 1: < 0.008 mM; category 2: ≥ 0.008 mM and < 0.03 mM; category 3: ≥ 0.03 mM

Answered examples (8):
molecule	classification
Nc1ncnc2c1ncn2[C@@H]1O[C@H](COP(O)(O)=S)[C@@H](O)[C@H]1O [Adenosine-5′-O-monophosphorothioate]	category 1
O=P(O)(O)OC[C@H]1O[C@@H](n2cnc3c(NC4CCCC4)ncnc32)[C@H](O)[C@@H]1O	category 2
O=P(O)(O)OP(=O)(O)OP(=O)(O)OC[C@H]1O[C@@H](n2cnc3c(Cl)ncnc32)[C@H](O)[C@@H]1O	category 2
NC(=O)c1ncn(C2OC(COP(=O)(O)O)C(O)C2O)n1 (centres unmarked) [Ribavirin 5′-Monophosphate]	category 3
O=c1[nH]cnc2c1ncn2C1CC(O)C(COP(O)(O)=S)O1 (centres unmarked)	category 2
Nc1nc2c(ncn2C2CC(O)C(COP(O)(O)=S)O2)c(=O)[nH]1 (centres unmarked)	category 1
Nc1nc2c(ncn2[C@@H]2O[C@H](COP(O)(O)=S)[C@@H](O)[C@H]2O)c(=O)[nH]1 [Guanosine-5′-monophosphorothioate]	category 1
O=P(O)(O)OCC1OC(n2cnc3c(Cl)ncnc32)C(O)C1O (centres unmarked)	category 1

Which class does O=c1nc[nH]c2c1ncn2C1O[C@H](COP(=O)(O)OP(=O)(O)OP(=O)(O)O)[C@@H](O)[C@H]1O (some centres unmarked) [trisodium salt] fall in?
category 2

Which class does Nc1ncnc2c1nc(Cl)n2[C@@H]1O[C@H](COP(=O)(O)O)C(O)C1O (some centres unmarked) [8-Chloroadenosine-5′-O-monophosphate] fall in?
category 3

Which class does O=c1ccn([C@H]2C[C@H](O)[C@@H](COP(O)(O)=S)O2)c(=O)[nH]1 [2′-Deoxyuridine-5′-O-monophosphorothioate (5′-dUMPS)] fall in?
category 3

Which class does Nc1nc2c(ncn2[C@@H]2O[C@H](COP(=O)(O)OP(=O)(O)O)[C@@H](O)[C@H]2O)c(=O)[nH]1 [Guanosine 5′-diphosphate sodium salt, Guanosine 5′-diphosphate] fall in?
category 3
